System: PPARg:RXRa 270nM:90nM, anti-RXR (NR concentration 270 nM, RXRa partner concentration 90 nM)
measurement-notes: PBM binding z-score (relative to random genomic background probes); higher = stronger binding; sequences stand for … in GC…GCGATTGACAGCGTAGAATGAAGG
Recorded PBM binding z-score by entry
Reply with the value as a number alone.

Use these answered entries as a reference point.
>>> recorded_measurement("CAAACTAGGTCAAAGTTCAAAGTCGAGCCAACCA")
10.7
>>> recorded_measurement("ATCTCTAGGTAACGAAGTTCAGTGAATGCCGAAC")
1.02
>>> recorded_measurement("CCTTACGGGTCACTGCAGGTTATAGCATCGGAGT")
4.35
>>> recorded_measurement("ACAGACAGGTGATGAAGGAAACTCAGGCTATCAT")
-0.12
>>> recorded_measurement("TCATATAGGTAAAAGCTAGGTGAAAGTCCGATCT")
2.74
>>> recorded_measurement("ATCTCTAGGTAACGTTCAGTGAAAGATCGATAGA")
0.792

Q: Record request: PBM binding z-score value, item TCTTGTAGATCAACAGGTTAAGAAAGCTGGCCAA
A: 1.83

Q: Proceed to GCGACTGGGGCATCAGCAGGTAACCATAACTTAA
A: 0.685

Q: Proceed to AGAACGAGGACACGCTGAGTTGATAGCAGAGTAG
A: -0.466

Data provenance is the supplement of paper PMC6555819.
